test: qHTS for Inhibitors of the Functional Ribonucleoprotein Complex (vRNP) of Lymphocytic Choriomeningitis Arenaviruses (LCMV): Viability assay - alamar blue signal for LCMV Primary Screen (AID 1347085); details: alamar blue viability counter-screen, LCMV vRNP screen cells; series mostly up to 57.5 µM; further: nearly all actives have a fitted effect of over 80% in size
Records with an inconclusive call do not appear. Calls of active or inactive are those of the source. The call rests on the fitted dose curve; tested in HEK293 reporter line.
assay_metric: outcome

> print(dat)
                                    molecule  assay.result
 1  COc1cc2c(c(OC)c1OC)-c1c(cc3c(c1O)OCO3)C[C@@H](C)[C@@H](C)C2      inactive
 2  C[C@]12C[C@H](O)CC(CO)(CO)C1[C@H](O)C[C@@]13CC4[C@@H](CC12)[C@@]4(C)C3 (stereo not given in full)      inactive
 3  C[N+]1(C)[C@@H]2C[C@@H](OC(=O)C(O)(c3cccs3)c3cccs3)C[C@H]1[C@@H]1O[C@@H]12      inactive
 4                      CCCCOC(=O)C(=O)OCCCC      inactive
 5  CCC1CN2CCC1CC2C(O)c1ccnc2ccccc12 (stereo not given)      inactive
 6  C/C(=C\c1ccc(C(=O)O)cc1)c1ccc2c(c1)C(C)(C)CCC2(C)C      inactive
 7  NC(CCCP(=O)(O)O)C(=O)O (stereo not given)      inactive
 8  Cn1c(=O)c2c(nc(/C=C/c3cccc(Cl)c3)n2C)n(C)c1=O      inactive
 9  COc1cc2c(OC(C)=O)c3c(c(-c4ccc5c(c4)OCO5)c2cc1OC)C(=O)OC3      inactive
10          CC1=C(O)C(=O)[C@@H]2O[C@@H]2C1=O      inactive

====

system: N140; experiment: qHTS profiling for inhibitors of Plasmodium falciparum proliferation (AID 504749); further: nearly all actives have a fitted effect of over 60% in size; details: P. falciparum in erythrocytes, SYBR Green DNA, 72 h; series mostly up to 28.7 µM
Records with an inconclusive call do not appear. Calls of active or inactive are those of the source. Calls follow the shape of the dose curve; as a rule, active = well fitted inhibition curve with a large enough effect; inconclusive = small, poorly fitted or top-dose-only effect; inactive = flat fitted curve, though single readings scatter.
Outcome codes: TRUE = active, FALSE = inactive

compound	assigned_class
CCCCCCCCCC[N+](C)(C)CCCCCCCCCC	TRUE
CO[C@H]1[C@@H](O)CC(OC2[C@@H](O)CC(OC3[C@@H](O)C[C@H](OC4CC[C@@]5(C)C(CCC6C5CC(O)[C@]5(C)[C@H](C7=CC(=O)OC7)CCC65O)C4)O[C@@H]3C)O[C@@H]2C)O[C@@H]1C (some centres undefined)	FALSE
O=C(O)c1ccccc1-c1c2cc(Br)c(=O)cc-2oc2[c]([Hg])c(O)c(Br)cc12	FALSE
CCN(CC)CCO[C@H]1CC[C@@]2(C)C(=CC[C@@H]3[C@H]2CC[C@]2(C)C(=O)CC[C@H]32)C1	FALSE

====

Test system: Zika virus NS2B-NS3 protease (linked construct)
Assay: Primary screen NINDS Rhodamine qHTS for Zika virus inhibitors (AID 1347160); further: nearly all actives have a fitted effect of over 55% in size
Settings: purified NS2B-NS3 protease, Rhodamine110 substrate fluorescence; series mostly up to 57.1 µM
From the text: Avindra Nath, Ph.D., National Institute of Neurological Disorders and Stroke (NINDS), Bethesda, MD Radhakrishnan Padmanabhan, Ph.D., Georgetown University (GU), Washington D.C. Zika Virus causes congenital defects, including microcephaly and is associated with Guillain-Barre syndrome, eningoencephalitis and myelitis in infected adult. […]
Inconclusive results are not listed. Activity calls are given as the source filed them. Calls come from the whole dose curve; as a rule, active = well fitted inhibition curve with a large enough effect; inconclusive = small, poorly fitted or top-dose-only effect; inactive = no such curve, though single readings can be large or run the other way.
Outcome codes: active, inactive

molecule	assigned_class
CCCCOC(=O)c1ccnc2cc(C(OCCN3CCCCC3)c3ccccc3Cl)sc12 (configuration not stated)	inactive
CC1=C[C@H]2O[C@@H]3C[C@H]4OC(=O)/C=C/C=C/C(=O)OCC/C(C)=C/C(=O)OC[C@@]2(CC1)[C@]4(C)[C@]31CO1	inactive
CNCCc1ccccc1	inactive
COc1ccc(C23CCC(=O)C=C2N(C)CC3)cc1OC (configuration not stated)	inactive
C[C@]12CC[C@H](O)C[C@@H]1CC[C@@H]1[C@@H]2CC[C@]2(C)[C@@H](C3=CC(=O)OC3)CC[C@]12O	inactive
CNc1ccc2oc(C[C@H]3O[C@@]4(CC[C@H]3C)O[C@H](C(C)C(=O)c3ccc[nH]3)[C@H](C)C[C@H]4C)nc2c1C(=O)O (some centres not stated)	inactive
CN(C)[C@@H]1C(=O)C(C(N)=O)=C(O)[C@@]2(O)C(=O)C3=C(O)c4c(O)ccc(Cl)c4[C@@](C)(O)C3C[C@@H]12 (some centres not stated)	inactive
Cc1sc2c(c1C)C(c1ccc(Cl)cc1)=N[C@@H](CC(=O)Nc1ccc(O)cc1)c1nnc(C)n1-2	inactive
CCC[C@H]1CC[C@H]2[C@H](C)CCC[C@H]2N1	inactive
COC1(C[S@@](=O)c2ccccc2)CCN(CCc2c[nH]c3ccc(F)cc23)CC1	inactive
CC/C=C/C=C/C1(C)OC(OC)=C(C(=O)C2C(C)C(=O)c3cc(OC)c(O)c(O)c3C2(C)O)C1=O (configuration not stated)	active
Cc1ccc2c(c1)[C@H]1CN(C)CC[C@H]1N2C(=O)CSc1nnnn1-c1ccc(Cl)cc1	inactive
NNC(=O)c1nn(Cc2ccc(Cl)cc2Cl)c2ccccc12	inactive
C1=C(c2cnc[nH]2)c2ccsc2CC1	inactive
C/C=C1/CN2CC[C@]34C(=Nc5ccccc53)[C@@H]2C[C@@H]1[C@H]4C(=O)OC	inactive
C[C@]12CC[C@@H](O)C[C@@H]1CC[C@@H]1[C@@H]2CC[C@]2(C)C(=O)[C@@H](Br)C[C@@H]12	inactive
N#Cc1ccc([C@H]2CCCC[C@H]2O)cc1C(F)(F)F	inactive
CC[C@H]1C2CC3[C@@H]4N(C)c5ccccc5[C@]45C[C@@H]([C@H]2[C@H]5O)N3[C@@H]1O	inactive
CC[C@@H]1C[C@H]2CC[C@H](O2)[C@H](C)C(=O)O[C@@H](C)C[C@@H]2CC[C@@H](O2)[C@@H](C)C(=O)O[C@H](CC)C[C@H]2CC[C@H](O2)[C@H](C)C(=O)O[C@@H](C)C[C@@H]2CC[C@@H](O2)[C@@H](C)C(=O)O1	inactive
N#Cc1cn([C@@H]2O[C@H](CO)[C@H](O)[C@@H]2O)c2ncnc(N)c12	inactive
CC(C)C(=O)O[C@H]1[C@@H]2[C@H](C)C(=O)O[C@@H]2C[C@@H](C)[C@@H]2C=CC(=O)[C@]21C	inactive
C=CC(C)(C)c1[nH]c2c(CC=C(C)C)cc(CC=C(C)C)cc2c1C[C@@H]1NC(=O)[C@H](C)NC1=O	inactive
COC1CC(O[C@H]2CC[C@@]3(C)C(CCC4C3CC[C@]3(C)C(C5=CC(=O)OC5)CCC43O)C2)OC(C)C1OC1OC(COC2OC(CO)C(O)C(O)C2O)C(O)C(O)C1O (some centres not stated)	inactive
COC(=O)[C@@]1(C)C(=O)C=C[C@]2(C)c3c(O)cc(C(C)C)cc3[C@H](O)[C@@H](OC(C)=O)C12 (some centres not stated)	inactive
CC(=O)O[C@H]1CC[C@H]2[C@@H]3CC[C@H]4CC(=O)C=C(C)[C@]4(C)[C@H]3CC[C@]12C	inactive
CO[C@@H](/C=C/CC/C=C/C(=O)O)[C@@H](O)[C@H](C)[C@@H](O)/C(C)=C/[C@H](C)C(=O)CCCC1CC(=O)NC(=O)C1	inactive
COc1ccc(CN(C(=O)[C@@H](N)Cc2c(C)cc(C(N)=O)cc2C)[C@@H](C)c2ncc(-c3ccccc3)[nH]2)cc1C(=O)O	inactive
